// reported inhibition in vivo at 50 mg/kg per item
- System: Mus musculus
- Method: Analgesic activity in Swiss albino mouse assessed as inhibition of acetic acid-induced writhing at 50 mg/kg, po administered 30 mins followed by acetic acid challenge measured for 20 mins relative to control
- Assay type: functional
Field format: number, assumed %, no unit text.

Worked examples, 3 molecules total:
Cc1noc(/C=C/c2ccc(Cl)cc2)c1N1CC2=C(C(=O)c3ccccc3C2=O)C12C(=O)Nc1ccccc12 (stereo not given) = 50.4
Cc1noc(/C=C/c2ccccc2)c1N1CC2=C(C(=O)c3ccccc3C2=O)C12C(=O)Nc1ccccc12 (stereo not given) = 22.4
Cc1noc(/C=C/c2ccccc2O)c1N1CC2=C(C(=O)c3ccccc3C2=O)C12C(=O)Nc1ccccc12 (stereo not given) = 20.4

So what does the record say about inhibition in vivo at 50 mg/kg for Cc1noc(/C=C/c2ccccc2)c1N1CC2=C(C(=O)c3ccccc3C2=O)C12C(=O)Nc1ccc(Cl)cc12 (stereo not given) ?
16.5

====

// reported inhibition in vivo at 50 mg/kg per item
- Test system: Mus musculus
- Method: Analgesic activity in Swiss albino mouse assessed as inhibition of acetic acid-induced writhing at 50 mg/kg, po administered 30 mins followed by acetic acid challenge measured for 20 mins relative to control
- Type: functional
Field format: number, assumed %, no unit text.

Worked examples, 5 molecules total:
Cc1noc(/C=C/c2ccc(Cl)cc2Cl)c1N1CC2=C(C(=O)c3ccccc3C2=O)C12C(=O)Nc1ccccc12 (stereo unspecified) = 44.8
COc1ccc2c(c1)C1(C(=O)N2)C2=C(CN1c1c(C)noc1/C=C/c1ccccc1)C(=O)c1ccccc1C2=O (stereo unspecified) = 18.4
Cc1ccc2c(c1)C1(C(=O)N2)C2=C(CN1c1c(C)noc1/C=C/c1ccccc1)C(=O)c1ccccc1C2=O (stereo unspecified) = 19.5
COc1ccc(/C=C/c2onc(C)c2N2CC3=C(C(=O)c4ccccc4C3=O)C23C(=O)Nc2ccccc23)cc1 (stereo unspecified) = 19.6
Cc1ccc(/C=C/c2onc(C)c2N2CC3=C(C(=O)c4ccccc4C3=O)C23C(=O)Nc2ccccc23)cc1 (stereo unspecified) = 26.3

Shift focus to the following entry.
So what does the record say about inhibition in vivo at 50 mg/kg for Cc1noc(/C=C/c2c(Cl)cccc2Cl)c1N1CC2=C(C(=O)c3ccccc3C2=O)C12C(=O)Nc1ccccc12 (stereo unspecified) ?
48.3
